The reader will find pIC50 measurements below, all made with UniProt P21554.
Please treat pIC50 as minus the base-10 logarithm of the molar concentration.

Here are 2 compounds together with their reported answers.
- line.notation: "CCOC(=O)[C@H](C)NC(=O)c1cc(F)cc(N(C2CN(C(c3ccc(Cl)cc3)c3ccc(Cl)cc3)C2)S(C)(=O)=O)c1"
  pIC50: 7.15
- line.notation: "CC(C)[C@H](NC(=O)c1cc(N(C2CN(C(c3ccc(Cl)cc3)c3ccc(Cl)cc3)C2)S(C)(=O)=O)cc(C(F)(F)F)c1)C(N)=O"
  pIC50: 7.39

Continue with the compound presented below.
**Q:** Query pIC50 for CC[C@H](NC(=O)c1ccc(F)c(N(C2CN(C(c3ccc(Cl)cc3)c3ccc(Cl)cc3)C2)S(C)(=O)=O)c1)C(N)=O
**A:** 6.02

---

Below is a list of entries, each paired with its recorded melting point value.

Guide cases for melting point, answers given:
- compound: "NC(=O)CCNC(=O)c1cccc(NS(=O)(=O)CC2CN(C(c3ccc(Cl)cc3)c3ccc(Cl)cc3)C2)c1"
  readout.value: "190 to 192 °C"
- compound: "CNC(=O)CNC(=O)c1cccc(NS(=O)(=O)CC2CN(C(c3ccc(Cl)cc3)c3ccc(Cl)cc3)C2)c1"
  readout.value: "216 °C"
- compound: "COc1cc(NS(=O)(=O)CC2CN(C(c3ccc(Cl)cc3)c3ccc(Cl)cc3)C2)cc(C(=O)N[C@@H](C)C(N)=O)c1 (hydrate or solvate)"
  readout.value: "183 to 185 °C"
- compound: "CC[C@H](NC(=O)c1cc(F)cc(NS(=O)(=O)CC2CN(C(c3ccc(Cl)cc3)c3ccc(Cl)cc3)C2)c1)C(N)=O"
  readout.value: "212 to 214 °C"
- compound: "C[C@H](NC(=O)c1cccc(NS(=O)(=O)CC2CN(C(c3ccc(Cl)cc3)c3ccc(Cl)cc3)C2)c1)C(N)=O"
  readout.value: "229 °C"

**Q:** Quote melting point reported for C[C@@H](NC(=O)c1cc(F)cc(NS(=O)(=O)CC2CN(C(c3ccc(Cl)cc3)c3ccc(Cl)cc3)C2)c1)C(N)=O please.
**A:** 219 to 221 °C

**Q:** Using known records, supply melting point for NC(=O)[C@H](CO)NC(=O)c1cc(F)cc(NS(=O)(=O)CC2CN(C(c3ccc(Cl)cc3)c3ccc(Cl)cc3)C2)c1
**A:** 212 to 214 °C

---

pIC50 tested on human CB1 receptor (Homo sapiens): recorded values
Sequence (P21554 whole entry): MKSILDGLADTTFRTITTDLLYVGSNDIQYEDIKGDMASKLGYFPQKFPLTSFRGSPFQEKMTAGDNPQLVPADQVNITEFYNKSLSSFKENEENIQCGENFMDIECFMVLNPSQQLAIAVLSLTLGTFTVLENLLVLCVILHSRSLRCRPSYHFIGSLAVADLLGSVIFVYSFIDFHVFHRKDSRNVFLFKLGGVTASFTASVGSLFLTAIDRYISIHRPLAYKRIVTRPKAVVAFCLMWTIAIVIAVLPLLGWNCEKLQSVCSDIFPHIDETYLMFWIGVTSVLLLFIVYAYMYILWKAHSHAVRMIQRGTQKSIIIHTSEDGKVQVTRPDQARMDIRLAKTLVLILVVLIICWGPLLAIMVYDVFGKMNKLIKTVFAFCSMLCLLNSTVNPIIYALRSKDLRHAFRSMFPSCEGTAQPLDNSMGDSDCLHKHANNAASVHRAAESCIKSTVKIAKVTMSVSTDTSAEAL
Scale note: pIC50 = -log10(concentration in M).

Worked set:
- compound: "C[C@H](NC(=O)c1cc(F)cc(N(C2CN(C(c3ccc(Br)cc3)c3ccc(Br)cc3)C2)S(C)(=O)=O)c1)C(N)=O [compound 70]"
  pIC50: 7.51
- compound: "C[C@@H](NC(=O)c1cc(F)cc(N(C2CN(C(c3ccc(Cl)cc3)c3ccc(Cl)cc3)C2)S(C)(=O)=O)c1)C(N)=O"
  pIC50: 6.55
- compound: "C[C@H](NC(=O)c1cc(N(C2CN(C(c3ccc(Cl)cc3)c3ccc(Cl)cc3)C2)S(C)(=O)=O)cc(C(F)(F)F)c1)C(=O)O [compound 68]"
  pIC50: 7.62

**Q:** Write down measured pIC50 (human CB1 receptor (Homo sapiens)) for this compound. C[C@H](NC(=O)c1cccc(N(C2CN(C(c3ccc(Cl)cc3)c3ccc(Cl)cc3)C2)S(C)(=O)=O)c1)C(N)=O
**A:** 7.37

**Q:** Using human CB1 receptor (Homo sapiens) as the test system, report measured pIC50 of C[C@H](NC(=O)c1cc(F)cc(N(C2CN(C(c3ccc(Cl)cc3)c3ccc(Cl)cc3)C2)S(C)(=O)=O)c1)C(N)=O .
**A:** 8.05
